- Target desc: HIV I reverse transcriptase (Human immunodeficiency virus type 1 group M subtype B, UniProt P03366)
- Test method notes: Reverse transcriptase inhibition assay (Roche kit, ELISA)
Would you mind telling me the reported EC50 of each entry?
// note: answer is a bare numeric in µM

# input Annotate the molecule Nc1nc(Nc2ccc(Cl)cc2)nn1S(=O)(=O)c1ccc2ccccc2c1 with its measured EC50.
# output 4.84

# input Annotate the molecule Cc1cc(/C=C/C#N)cc(C)c1Nc1ccnc(Nc2ccc(C#N)cc2)n1 [Rilpivirine, rilpivirine, reference compound] with its measured EC50.
# output 0.376

# input Annotate the molecule N#C/C=C/c1ccc2c(S(=O)(=O)n3nc(Nc4ccc(C#N)c(Cl)c4)nc3N)cccc2c1 with its measured EC50.
# output 4.06
